Values were extracted from patent US8106197B2.

Target: HGFR (Homo sapiens, UniProt P08581)
Construct: purchased Upstate 14-526
Sequence (P08581 974-1390 limits assumed): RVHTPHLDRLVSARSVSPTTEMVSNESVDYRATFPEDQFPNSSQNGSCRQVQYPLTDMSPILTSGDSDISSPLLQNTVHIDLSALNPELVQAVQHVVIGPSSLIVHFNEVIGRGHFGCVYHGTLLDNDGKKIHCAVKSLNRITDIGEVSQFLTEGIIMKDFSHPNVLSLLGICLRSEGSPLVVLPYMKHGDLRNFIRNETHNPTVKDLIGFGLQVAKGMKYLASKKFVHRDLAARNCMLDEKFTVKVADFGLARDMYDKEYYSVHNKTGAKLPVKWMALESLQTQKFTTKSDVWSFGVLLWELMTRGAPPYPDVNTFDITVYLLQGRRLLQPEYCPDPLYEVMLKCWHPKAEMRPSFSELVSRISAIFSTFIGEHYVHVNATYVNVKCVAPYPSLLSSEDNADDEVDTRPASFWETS
Test: HGFR continuous-coupled spectrophotometric assay
Assay type: biochemical
Conditions: Table 5; percent c-MET inhibition at 50 nM
Below, each of the compounds is paired with its reported inhibition at 0.05 µM value.
property: inhibition at 0.05 µM (%)

# compound, reported measurement
measured = [
    ("CC(Oc1cc(-c2ccc(C(=O)N[C@H]3C[C@@H]3c3ccccc3)cc2)cnc1N)c1c(Cl)ccc(F)c1Cl (stereo partly shown)", 65),
    ("CCC(COC)NC(=O)c1ccc(-c2cnc(N)c(OC(C)c3c(Cl)ccc(F)c3Cl)c2)cc1 (stereo not shown)", 59),
    ("CC(Oc1cc(-c2ccc(C(=O)N3CCCC(O)C3)cc2)cnc1N)c1c(Cl)ccc(F)c1Cl (stereo not shown)", 85),
    ("CC(Oc1cc(-c2ccc(C(=O)N3CCN(CCC#N)CC3)cc2)cnc1N)c1c(Cl)ccc(F)c1Cl (stereo not shown)", 77),
    ("CCC(CO)NC(=O)c1ccc(-c2cnc(N)c(OC(C)c3c(Cl)ccc(F)c3Cl)c2)cc1 (stereo not shown)", 73),
    ("CC(Cc1ccc(Cl)cc1)NC(=O)c1ccc(-c2cnc(N)c(OC(C)c3c(Cl)ccc(F)c3Cl)c2)cc1 (stereo not shown)", 58),
    ("CC(Oc1cc(-c2ccc(C(=O)NC[C@@H]3CCCC[C@H]3O)cc2)cnc1N)c1c(Cl)ccc(F)c1Cl (stereo partly shown)", 67),
    ("CC(Oc1cc(-c2ccc(C(=O)N[C@H]3CC[C@H](O)CC3)cc2)cnc1N)c1c(Cl)ccc(F)c1Cl (stereo partly shown) [drawing 1039]", 73),
    ("CC(Oc1cc(-c2ccc(C(=O)N3CCCC(C(N)=O)C3)cc2)cnc1N)c1c(Cl)ccc(F)c1Cl (stereo not shown)", 84),
    ("CCC(C)NC(=O)c1ccc(-c2cnc(N)c(OC(C)c3c(Cl)ccc(F)c3Cl)c2)cc1 (stereo not shown)", 64),
]
